# test.summary: melting temperature; fluorescence melt of hairpins on a sequencing array, two-state fit, raised by 9.35 °C to match UV melts
# condition.set: sodium 0.088 M
Tm under 50 °C gets satisfied, anything at or over 50 °C gets not satisfied.

1) GTCGGCGGAAACGCCAAC ((.((((....)))).)) ... satisfied
2) GGCGGCGGAAACACCGCC (((((.(....).))))) ... not satisfied
3) GAAGATGGAAACATTTTC (((.(((....))).))) ... satisfied
4) GATTTCCCGAAAGGGATC (((..(((....)))))) ... satisfied
5) GCGGATGCGAAAGCACGC (((..(((....)))))) ... not satisfied
6) GCGGAGAAATCCGC (((((....))))) ... not satisfied
7) GTAACGGGAAACCGTTAC (((((((....))))))) ... not satisfied
8) GATCAGAAACTGATC ((((((...)))))) ... satisfied
9) GATCGCGGGGCGATC ((((((...)))))) ... not satisfied
10) GATTGTGGAAACGCAATC (((((.(....).))))) ... satisfied
11) GATCGGGAACCGATC ((((((...)))))) ... not satisfied
12) GTTGCTCGAAAGAGGAAC (((.(((....))).))) ... not satisfied
